We begin with a simple list: items and their reported IC50.
System: phosphorylation of AKT (pAKT) in T47D cells expressing mutant PI3Ka (H1047R)
Assay: In vitro cell pAKT (Ser473) HTRF, T47D cells
Type: cell-based
Details: cellular pAKT, T47D cells, mutant PI3Ka (H1047R), 6 hours; read-out: Avg T-47D IC50

Some compounds with recorded IC50:
INSERT INTO assay_data (compound, meas_value) VALUES
  ('Cc1cc([C@@H](C)Nc2ccccc2C(=O)O)c2cc(N3CCN(c4cnc(C)c(F)c4)CC3)n(C)c(=O)c2c1 [Example 367]', '0.001 to 0.5 µM'),
  ('Cc1cc(C(C)Nc2ccccc2C(=O)O)c2cc(N3CC(Cl)C3)n(C)c(=O)c2c1 (single isomer, unassigned) [Example 78]', '> 15 µM'),
  ('C[C@@H](Nc1ccccc1C(=O)O)c1cc(F)cc2c(=O)n(C)c(-c3cnc(-c4ccc(F)cc4)nc3)cc12 [Example 324]', '0.001 to 0.5 µM'),
  ('Cc1cc(C(C)Nc2ccccc2C(=O)O)c2cc(N3CCN4CCC[C@H]4C3)n(C)c(=O)c2c1 (single isomer, unassigned) [Example 139]', '0.5 to 2 µM'),
  ('Cc1cc(C(C)Nc2ccccc2C(=O)O)c2cc(N3CCC(c4ccccc4)C3)n(C)c(=O)c2c1 (single isomer, unassigned) [Example 105]', '0.001 to 0.5 µM'),
  ('Cc1cc(C(C)Nc2ccccc2C(=O)O)c2cc(N3CCN(C(=O)CC(C)C)CC3)n(C)c(=O)c2c1 (single isomer, unassigned) [Example 33]', '0.001 to 0.5 µM'),
  ('Cc1cc(C(C)Nc2ccccc2C(=O)O)c2cc(N3CCN(C(=O)CC(C)C)CC3)n(C)c(=O)c2c1 (single isomer, unassigned) [Example 32]', '> 15 µM'),
  ('Cc1cc(C(C)Nc2ccccc2C(=O)O)c2cc(-c3ccc(N4CCOCC4)nc3)n(C)c(=O)c2c1 (single isomer, unassigned) [Example 486]', '2 to 15 µM');

Provide measured IC50 on phosphorylation of AKT (pAKT) in T47D cells expressing mutant PI3Ka (H1047R) for Cc1cc([C@@H](C)Nc2cccc(F)c2C(=O)O)c2cc(C3CC3(F)F)n(C)c(=O)c2c1 (single isomer, unassigned) [Example 421] please.
0.001 to 0.5 µM

Provide measured IC50 on phosphorylation of AKT (pAKT) in T47D cells expressing mutant PI3Ka (H1047R) for Cc1ncc(-c2ncc(-c3cc4c([C@@H](C)Nc5ccccc5C(=O)O)cc(F)cc4c(=O)n3C)cc2F)s1 [Example 519] please.
0.001 to 0.5 µM

Provide measured IC50 on phosphorylation of AKT (pAKT) in T47D cells expressing mutant PI3Ka (H1047R) for C[C@@H](Nc1cccc(F)c1C(=O)O)c1cc(F)cc2c(=O)n(C)c(N3CCC(F)(F)C3)cc12 [Example 414] please.
0.001 to 0.5 µM

Provide measured IC50 on phosphorylation of AKT (pAKT) in T47D cells expressing mutant PI3Ka (H1047R) for C#Cc1ccc(N[C@H](C)c2cc(F)cc3c(=O)n(C)c(-c4ccc(OCC(F)(F)F)nc4)cc23)c(C(=O)O)n1 [Example 542] please.
0.001 to 0.5 µM

Provide measured IC50 on phosphorylation of AKT (pAKT) in T47D cells expressing mutant PI3Ka (H1047R) for Cc1ncncc1N1CCN(c2cc3c([C@@H](C)Nc4cccc(F)c4C(=O)O)cc(F)cc3c(=O)n2C)CC1 [Example 397] please.
0.5 to 2 µM
